This collection of values is drawn from patent US20240101708A1.

# ASSAY_TARGET: T1, recombinant human RNF43 extracellular domain (human, UniProt Q68DV7 24-197)
# T1 construct: extracellular domain; also called huRNF43; human RNF43 ECD
# T1 sequence (looked up): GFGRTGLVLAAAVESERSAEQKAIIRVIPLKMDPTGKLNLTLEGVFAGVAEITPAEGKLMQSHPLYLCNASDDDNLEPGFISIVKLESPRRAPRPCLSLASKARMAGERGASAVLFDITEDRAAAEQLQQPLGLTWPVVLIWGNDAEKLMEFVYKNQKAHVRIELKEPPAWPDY
# ASSAY_REMARKS: SPR Biacore 8K; antibody captured on Protein A; RNF43 ECD analyte; 25 C
Could you please report measured pKd for the items listed next?
Answers are plain numbers, as −log10 of the molar value.

>>> recorded_measurement("RNF43-130 (antibody, V domains shown, Rat clone; VH/VL only) VH: QVQLVQSGAEVVKPGSSVKISCKASGYTFTGNFIHWIKQQPGNGLEWIGWIYPGDGDTTYNQKFSGKATLTADKSSSTAYMQLSNLTSEDSAVYFCAKWRDLSSDWFAYWGQGTLVTVSS VL: DIVMTQSPVSLTVSEGEMVTINCKSSQSLLSSGNQKNYLAWYQQKPGQSPRLLIYFTSTRQSGVPDRFIGSGSGTDFTLTISDVQAEDLADYYCLQHYSYPNTFGAGTKLELK")
9.87
>>> recorded_measurement("RNF43-17 (antibody, V domains shown, Rabbit clone; VH/VL only) V domain 1: QSVEESGGRLVTPGTPLTLTCTGSGFSLSNYAMGWVRQAPGKGLEYIGIIYASGSTWYASWAKGRFTISKTSTTVDLKITSPATEDTATYFCCRDATTTYDRLDLWGQGTLITVSS V domain 2: AFELTQTPSSVEAAVGGTVTIKCQASQSISKWLAWYQQKPGQPPKLLIYRASTLPSGVPSRFKGSGSGTEFTLTISGVECADAATYYCQQGYSVTNLDEAFGGGTEVVVK")
8.17

Continue with the binder presented below.
Please list pKd recorded for the binder RNF43-41 (antibody, V domains shown, Rat clone; VH/VL only) VH: EVHLVESGGGLVQPGRSVKLSCTASGFTFSYYDMAWVRQAPTKGLEWVASLTYDGSSTYYRDSVKGRFTISRDNAKSTLYLQMDSLRSEDTATYYCTTDRGRYLPYHFDYWGQGVMVTVSS VL: DVVLTQTPVSLSVTLGDQASISCRSSQSLEYSDGYTYLEWYLQKPGQSPQLLIYEVSTRFSGVPDRFIGSGSGTDFTLKISRVEPEDLGVYYCFQATHDPTFGAGTKLELK
9.43
